# targetUnderTest: D(2) dopamine receptor (Homo sapiens, UniProt P14416)
# Sequence (P14416 whole entry): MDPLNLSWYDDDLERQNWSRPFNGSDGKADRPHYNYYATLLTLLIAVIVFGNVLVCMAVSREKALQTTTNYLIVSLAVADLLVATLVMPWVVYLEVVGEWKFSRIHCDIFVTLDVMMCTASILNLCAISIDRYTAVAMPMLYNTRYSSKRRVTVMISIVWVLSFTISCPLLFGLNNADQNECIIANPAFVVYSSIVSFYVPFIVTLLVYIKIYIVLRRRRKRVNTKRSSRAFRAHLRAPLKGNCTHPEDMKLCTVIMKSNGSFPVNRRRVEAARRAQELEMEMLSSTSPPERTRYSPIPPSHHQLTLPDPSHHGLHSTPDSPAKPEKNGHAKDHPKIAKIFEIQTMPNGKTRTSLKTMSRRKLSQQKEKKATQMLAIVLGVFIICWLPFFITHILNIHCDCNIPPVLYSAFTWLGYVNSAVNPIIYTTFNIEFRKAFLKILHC
# assayInfo: biochemical
# Description: Displacement of [3H]SCH23390 from human cloned dopamine D2 long receptor expressed in CHO cells
Could you mark each record TRUE if its Ki falls strictly under 1 µM, and FALSE if it equals or exceeds it?

# substanceSmiles, class
data = [
    ("Cn1c(N2CCCC2)nc2c(CN3CCN(c4ccc(F)cc4)CC3)c[nH]c2c1=O", "TRUE"),
    ("Cc1cc2nc(C)c(CN3CCN(c4ccc(F)cc4)CC3)n2c(C)n1", "FALSE"),
    ("Cc1cc2nc(C)c(CN3CCN(c4ccccc4)CC3)n2c(C)n1", "FALSE"),
    ("Cc1cc2nc(C)c(CN3CCN(c4ccccn4)CC3)n2c(C)n1", "FALSE"),
    ("COc1ccc(N2CCN(Cc3c(C)nc4cc(C)ncn34)CC2)cc1", "FALSE"),
    ("Cn1c(N2CCCC2)nc2c(CN3CCN(c4ccccc4)CC3)c[nH]c2c1=O", "TRUE"),
    ("Cn1c(N2CCCC2)nc2c(CN3CCN(c4ccccn4)CC3)c[nH]c2c1=O", "TRUE"),
    ("COc1ccccc1N1CCN(Cc2c(C)nc3cc(C)ncn23)CC1", "FALSE"),
    ("Cn1c(N2CCCC2)nc2c(CN3CCN(c4ccc(Cl)c(Cl)c4)CC3)c[nH]c2c1=O", "TRUE"),
    ("COc1ccccc1N1CCN(Cc2cnc3cc(C)nc(C)n23)CC1", "FALSE"),
]

* * *

Below are compounds with their pKi as measured on D(1A) dopamine receptor (Bos taurus).
Sequence (Q95136 whole entry): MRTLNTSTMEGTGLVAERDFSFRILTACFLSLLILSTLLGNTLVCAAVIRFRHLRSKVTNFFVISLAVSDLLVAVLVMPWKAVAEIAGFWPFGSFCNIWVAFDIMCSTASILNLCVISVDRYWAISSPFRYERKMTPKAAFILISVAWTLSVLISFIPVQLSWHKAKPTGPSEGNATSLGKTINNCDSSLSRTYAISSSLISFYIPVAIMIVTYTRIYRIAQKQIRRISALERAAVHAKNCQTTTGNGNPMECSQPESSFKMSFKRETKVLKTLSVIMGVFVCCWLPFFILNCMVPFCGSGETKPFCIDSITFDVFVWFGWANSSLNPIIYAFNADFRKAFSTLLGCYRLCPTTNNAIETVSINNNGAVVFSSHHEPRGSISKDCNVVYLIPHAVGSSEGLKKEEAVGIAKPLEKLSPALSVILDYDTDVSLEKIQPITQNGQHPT
pKi: −log10 of the molar value.

# substanceSmiles, targetUnderTest, pKi
records = [
    ("COc1ccccc1N1CCN(Cc2c(C)nc3cc(C)ncn23)CC1", "D(1A) dopamine receptor (Bos taurus)", 4.23),
    ("Cc1cc2nc(C)c(CN3CCN(c4ccccc4)CC3)n2c(C)n1", "D(1A) dopamine receptor (Bos taurus)", 4.96),
    ("Cn1c(N2CCOCC2)nc2c(CN3CCN(c4ccccc4)CC3)c[nH]c2c1=O", "D(1A) dopamine receptor (Bos taurus)", 6.28),
    ("Cc1cc2nc(C)c(CN3CCN(c4ccc(Cl)c(Cl)c4)CC3)n2c(C)n1", "D(1A) dopamine receptor (Bos taurus)", 5.68),
    ("Cn1c(N2CCCC2)nc2c(CN3CCN(c4ccc(F)cc4)CC3)c[nH]c2c1=O", "D(1A) dopamine receptor (Bos taurus)", 6.80),
    ("COc1ccc(N2CCN(Cc3c(C)nc4cc(C)ncn34)CC2)cc1", "D(1A) dopamine receptor (Bos taurus)", 4.57),
    ("COc1ccccc1N1CCN(Cc2cc3c(=O)[nH]c(N(C)C)nc3[nH]2)CC1", "D(1A) dopamine receptor (Bos taurus)", 5.08),
    ("COc1ccccc1N1CCN(Cc2c(C)[nH]c3nc(N(C)C)ncc23)CC1", "D(1A) dopamine receptor (Bos taurus)", 5.17),
    ("Clc1nccc2c(CN3CCN(c4ccccc4)CC3)c[nH]c12", "D(1A) dopamine receptor (Bos taurus)", 5.17),
    ("COc1ccc(N2CCN(Cc3c(C)nc4cc(C)nc(C)n34)CC2)cc1", "D(1A) dopamine receptor (Bos taurus)", 5.18),
    ("Cc1cc2nc(C)c(CN3CCN(c4ccc(F)cc4)CC3)n2c(C)n1", "D(1A) dopamine receptor (Bos taurus)", 4.92),
]
